System: Vero E6 infected with SARS-CoV-2
EXPERIMENTAL_PROTOCOL: inhibition of SARS-CoV-2 cytopathic effect; higher = more antiviral protection, active = above 15
SETTINGS: 10000 nM; 48 h
ASSAY_ENDPOINT: inhibition of SARS-CoV-2 cytopathic effect (%)

{"columns": ["CHEMICAL_SMILES", "UNIT_SPEC", "QUANTITATIVE_READOUT"],
 "data": [
  ["CCCOc1ccc(S(=O)(=O)N2CCN(CCO)CC2)cc1-c1nc2c(CCC)cn(CC)c2c(=O)[nH]1", "%", -6.03],
  ["O=C(O)c1ccc(/C=C2\\SC(=S)N(c3cccc(C(F)(F)F)c3)C2=O)cc1", "%", -0.46],
  ["CN(CCOc1ccc(C[C@H](Nc2ccccc2C(=O)c2ccccc2)C(=O)O)cc1)c1ccccn1", "%", -1.74],
  ["C[C@H](N)C(=O)O", "%", -4.52],
  ["O=C(NCCCCN1CCN(c2cccc(Cl)c2Cl)CC1)c1ccc2c(c1)Cc1ccccc1-2", "%", -3.44],
  ["Cc1cncc(CN2CCC(=C3c4ccc(Cl)cc4CCc4cccnc43)CC2)c1", "%", -9.2],
  ["N#Cc1c(N)nc(SCC(N)=O)c(C#N)c1-c1ccc(OCC2CC2)cc1", "%", 12.1],
  ["Oc1ccc2c3c1O[C@H]1c4[nH]c5ccccc5c4C[C@@]4(O)[C@@H](C2)N(CC2CC2)CC[C@]314", "%", -3.58],
  ["CNNCc1ccc(C(=O)NC(C)C)cc1", "%", 0.27]
]}

---

Test system: Vero E6 infected with SARS-CoV-2
EXPERIMENTAL_PROTOCOL: SARS-CoV-2 infection rate relative to infected DMSO; higher = more infection, active = 60 or less
SETTINGS: 24 h
# SARS-CoV-2 infection rate values compiled below

{"columns": ["COMPOUND", "TARGET_SYSTEM", "UNIT_SPEC", "SARS-CoV-2 infection rate"],
 "data": [
  ["CC(=O)OCC(=O)[C@@]1(O)[C@@H](C)C[C@H]2[C@@H]3CCC4=CC(=O)C=C[C@]4(C)[C@@]3(F)[C@@H](O)C[C@@]21C [betamethasone-acetate] (10 µM)", "Vero E6 infected with SARS-CoV-2", "%", 114],
  ["O=C(O[C@H]1CN2CCC1CC2)N(Cc1cc(F)c(F)c(F)c1)c1cccc(F)c1 [tarafenacin] (10 µM)", "Vero E6 infected with SARS-CoV-2", "%", 74],
  ["CNC(=O)c1ccc(-c2cnc3ncc(Cc4ccc5ncccc5c4)n3n2)cc1F (10 µM)", "Vero E6 infected with SARS-CoV-2", "%", 98],
  ["COc1ccc(-c2csc(NC(=O)[C@H]3CCCCN3S(=O)(=O)c3ccc(C)cc3)n2)cc1 (10 µM)", "Vero E6 infected with SARS-CoV-2", "%", 61.5],
  ["COc1cc2c(NC3CCN(CC4CCCCC4)CC3)nc(N3CCCN(C(C)C)CC3)nc2cc1OCCCN1CCCCC1 (0.833333 µM)", "Vero E6 infected with SARS-CoV-2", "%", 92],
  ["COc1ccc(Nc2nccc(NCCO)n2)cc1 [cardiogenol-C] (10 µM)", "Vero E6 infected with SARS-CoV-2", "%", 100],
  ["CCOC(=O)C1=C(C)NC(C)=C(C(=O)OC)[C@@H]1c1cccc([N+](=O)[O-])c1 (racemic) [nitrendipine] (10 µM)", "Vero E6 infected with SARS-CoV-2", "%", 112],
  ["CCCCCCCCCCCCCCCC(=O)OC(C)C [isopropyl-palmitate] (10 µM)", "Vero E6 infected with SARS-CoV-2", "%", 77]
]}

Hey, just so you know, these numbers are from the supplement of paper PMC13380429.
